Ref: ChEMBL document CHEMBL1139251

Molecular target: Voltage-gated inwardly rectifying potassium channel KCNH2 (Homo sapiens, UniProt Q12809)
Sequence (Q12809 whole entry): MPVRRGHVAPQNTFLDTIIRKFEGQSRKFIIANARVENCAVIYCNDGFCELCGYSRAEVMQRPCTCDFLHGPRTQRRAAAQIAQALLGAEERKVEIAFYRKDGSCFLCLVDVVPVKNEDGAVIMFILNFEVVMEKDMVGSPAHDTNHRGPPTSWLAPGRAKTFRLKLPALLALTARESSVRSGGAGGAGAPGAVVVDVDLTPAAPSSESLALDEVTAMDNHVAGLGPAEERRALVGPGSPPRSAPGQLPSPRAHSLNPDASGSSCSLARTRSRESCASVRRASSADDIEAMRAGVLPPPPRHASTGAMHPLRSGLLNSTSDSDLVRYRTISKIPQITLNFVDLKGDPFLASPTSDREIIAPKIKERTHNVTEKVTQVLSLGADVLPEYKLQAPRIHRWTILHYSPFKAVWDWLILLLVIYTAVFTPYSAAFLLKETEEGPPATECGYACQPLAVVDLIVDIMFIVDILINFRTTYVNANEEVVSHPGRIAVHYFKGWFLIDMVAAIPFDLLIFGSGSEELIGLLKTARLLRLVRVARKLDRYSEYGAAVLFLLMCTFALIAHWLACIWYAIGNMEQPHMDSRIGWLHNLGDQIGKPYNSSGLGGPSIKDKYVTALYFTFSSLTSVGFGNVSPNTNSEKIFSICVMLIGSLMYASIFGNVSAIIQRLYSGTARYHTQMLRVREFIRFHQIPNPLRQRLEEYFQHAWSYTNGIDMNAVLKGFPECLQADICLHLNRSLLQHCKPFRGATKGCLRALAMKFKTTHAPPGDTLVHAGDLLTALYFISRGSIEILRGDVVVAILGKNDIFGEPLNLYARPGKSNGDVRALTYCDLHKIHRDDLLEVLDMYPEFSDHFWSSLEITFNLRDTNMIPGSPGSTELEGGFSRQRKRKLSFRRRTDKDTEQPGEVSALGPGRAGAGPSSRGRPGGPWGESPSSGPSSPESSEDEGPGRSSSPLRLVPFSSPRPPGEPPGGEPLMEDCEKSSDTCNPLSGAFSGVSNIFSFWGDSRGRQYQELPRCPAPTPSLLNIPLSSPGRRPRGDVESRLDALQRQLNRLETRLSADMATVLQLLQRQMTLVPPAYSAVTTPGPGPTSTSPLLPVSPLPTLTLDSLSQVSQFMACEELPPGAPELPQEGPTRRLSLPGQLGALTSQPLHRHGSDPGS
Test: Inhibition of human ERG by calcium-flux based assay
test.readout: pIC50
Numbers only, as −log10 of the molar value.

Task: What does the record list as pIC50 for CN1CC(C)(NC(=O)Nc2cccc(-c3nnnn3C)c2)C(CN2CCC[C@@H](Cc3ccc(F)cc3)C2)OC1=O.Cl (mixture of isomers; 19b) ?
Output: 4.80

----------
Assign IC50 to each entry below.
Test system: Eosinophil
Experiment: Induction of shape change in human eosinophils by flow cytometry
Assay type: functional, cell-based
Conditions: eosinophil

Below: 2 compounds and their reported IC50.
compound="CN1CC(C)(NC(=O)Nc2cccc(-c3nnnn3C)c2)C(CN2CCC[C@@H](Cc3ccc(F)cc3)C2)OC1=O.Cl (mixture of isomers; 19b)" system_name=Eosinophil test_readout=IC50 recorded_value="0.13 nM"
compound="CN1CC(C)(NC(=O)Nc2cccc(-c3nnnn3C)c2)C(CN2CCC[C@@H](Cc3ccc(F)cc3)C2)OC1=O (mixture of isomers; 19a)" system_name=Eosinophil test_readout=IC50 recorded_value="2.4 nM"

Lab note: next compound to report on.
Task: GET /values?readout=IC50&item= CCN(CCCc1ccc(F)cc1)CC1OC(=O)N(C)CC1(C)NC(=O)Nc1cccc(-c2nnnn2C)c1 (mixture of isomers; 23a)
Output: 4.4 nM

----------
// IC50 collected for Cytochrome P450 2D6 (Homo sapiens, UniProt P10635)
Answers are plain numbers, in µM.

Before answering, review these 3 worked examples.
compound="CN1CC(C)(NC(=O)Nc2nc(C(C)(C)C)cs2)C(CN2CCC[C@@H](Cc3ccc(F)cc3)C2)OC1=O (mixture of isomers; 22b)" recorded_value=40
compound="CC(=O)c1sc(NC(=O)NC2(C)CN(C)C(=O)OC2CN2CCC[C@@H](Cc3ccc(F)cc3)C2)nc1C (mixture of isomers)" recorded_value=21
compound=CN1C[C@@H](NC(=O)Nc2cccc(-c3nnnn3C)c2)[C@H](CN2CCC[C@@H](Cc3ccc(F)cc3)C2)OC1=O recorded_value=4.3

Field: next compound
Task: Fill in the blank: the reported IC50 of CN1CC(C)(NC(=O)Nc2cccc(-c3nnnn3C)c2)C(CN2CCC[C@@H](Cc3ccc(F)cc3)C2)OC1=O.Cl (mixture of isomers; 19b) is ____.
Output: 17

----------
Biological target: C-C chemokine receptor type 3 (Homo sapiens, UniProt P51677)
Sequence (P51677 whole entry): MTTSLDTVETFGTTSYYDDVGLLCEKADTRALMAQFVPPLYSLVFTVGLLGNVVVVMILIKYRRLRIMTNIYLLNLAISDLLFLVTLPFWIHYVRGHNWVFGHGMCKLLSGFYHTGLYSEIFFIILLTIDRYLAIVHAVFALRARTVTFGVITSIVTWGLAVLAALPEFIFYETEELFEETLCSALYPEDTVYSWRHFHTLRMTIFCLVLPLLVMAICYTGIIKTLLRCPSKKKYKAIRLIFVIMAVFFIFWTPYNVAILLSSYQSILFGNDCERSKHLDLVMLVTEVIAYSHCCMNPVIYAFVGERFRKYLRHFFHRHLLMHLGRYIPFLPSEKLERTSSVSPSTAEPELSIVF
test.readout: IC50 (nM)
Answers are plain numbers, in nM.

compound=CN1C[C@@H](NC(=O)Nc2cccc(-c3nnnn3C)c2)[C@H](CN(CCCc2ccc(F)cc2)C2CC2)OC1=O recorded_value=2.1

Below is a list of compounds. For each, state its recorded IC50.
1. CCN(CCCc1ccc(F)cc1)CC1OC(=O)N(C)CC1(C)NC(=O)Nc1cccc(-c2nnnn2C)c1 (mixture of isomers; 23a)
2. CC(=O)c1sc(NC(=O)NC2(C)CN(C)C(=O)OC2CN2CCC[C@@H](Cc3ccc(F)cc3)C2)nc1C (mixture of isomers)

Output:
0.18
1.1

Give IC50 for all compounds that follow.
1. CCCN(CCCc1ccc(F)cc1)C[C@@H]1OC(=O)N(C)C[C@H]1NC(=O)Nc1nc(C)cs1
2. CN1CC(C)(NC(=O)Nc2nc(C(C)(C)C)cs2)C(CN2CCC[C@@H](Cc3ccc(F)cc3)C2)OC1=O (mixture of isomers; 22b)

Output:
9.2
5.5
